# measuredOn: UniProtKB P24158
# Sequence (P24158 28-248 limits assumed): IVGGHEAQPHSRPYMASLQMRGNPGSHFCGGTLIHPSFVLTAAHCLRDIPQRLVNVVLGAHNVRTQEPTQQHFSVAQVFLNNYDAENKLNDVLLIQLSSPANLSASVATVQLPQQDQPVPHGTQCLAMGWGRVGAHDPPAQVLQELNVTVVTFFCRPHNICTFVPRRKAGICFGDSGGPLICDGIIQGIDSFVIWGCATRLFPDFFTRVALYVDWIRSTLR
# assayProcedure: Proteinase-3 inhibition
# Type: biochemical
# Parameters: concentration or dose not given beside the values
# testParameters: Table 7
# Text: An in vitro assay can be used to screen compounds of the invention for the ability to reduce or inhibit serine proteinase activity. The human leukocyte elastase (HLE), cathepsin G (Cath G), and proteinase-3 assays have each been described (Groutas et al., J. Med. Chem. 32:1607-1611, 1989; Groutas et al., Arch. Biochem. Biophys. 294:144-146, 1992; Kao et al., J. Clin. Invest. 82:1963-1973, 1988, each incorporated by reference herein). […]
readoutLabel: % Proteinase-3 Inhibition
Please give the number followed by its unit.

Solved cases below.
compound	readoutLabel	recordedResult
CC(C)CC1C(=O)N(CS(=O)(=O)c2ccccc2)S(=O)(=O)N1Cc1ccccc1 (stereo not shown) [drawing 92 R = benzyl]	% Proteinase-3 Inhibition	86%
CC(C)(C)OC(=O)CN1[C@@H](Cc2ccccc2)C(=O)N(CF)S1(=O)=O [drawing 93 R = CH2 COOt-BOC]	% Proteinase-3 Inhibition	33%
O=C1C(Cc2ccccc2)N(Cc2ccccc2)S(=O)(=O)N1CF (stereo not shown) [drawing 93 R = benzyl]	% Proteinase-3 Inhibition	43%
CN1C(Cc2ccccc2)C(=O)N(CF)S1(=O)=O (stereo not shown) [drawing 93 R = methyl]	% Proteinase-3 Inhibition	55%
O=C1c2ccccc2S(=O)(=O)N1CF [drawing 94]	% Proteinase-3 Inhibition	79%

API: value(readout= % Proteinase-3 Inhibition, system= UniProtKB P24158, query= O=C(CSc1ccccc1)OCN1C(=O)c2ccccc2S1(=O)=O )
66%

Could you share what % Proteinase-3 Inhibition was measured for CC(C)CC1C(=O)N(CS(=O)(=O)c2ccccc2)S(=O)(=O)N1C (stereo not shown) [drawing 92 R = methyl] , tested on UniProtKB P24158?
84%

----------
Overview of reported kinact/KI across a group of compounds:
# measuredOn: cathepsin G (Cath G) (Homo sapiens)
# Construct: purchased Athens Research and Technology, Athens, Ga
# Sequence (P08311 21-244 limits assumed): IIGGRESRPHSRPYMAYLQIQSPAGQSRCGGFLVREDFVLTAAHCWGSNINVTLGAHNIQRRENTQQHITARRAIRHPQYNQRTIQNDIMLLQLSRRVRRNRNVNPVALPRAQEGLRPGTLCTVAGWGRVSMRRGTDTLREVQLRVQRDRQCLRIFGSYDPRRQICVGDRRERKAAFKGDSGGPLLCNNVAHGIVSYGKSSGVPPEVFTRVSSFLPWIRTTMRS
# assayProcedure: Inactivation of human leukocyte cathepsin G (kobs/[I])
# Format: biochemical
# testParameters: pH 7.5; Table 1B

For orientation, consider the following solved cases.
compound	recordedResult
C=C(N1C(=O)C(Cc2ccccc2)CS1(=O)=O)S(=O)(=O)c1ccccc1 (stereo not shown) [Compound 9]	340 M⁻¹ s⁻¹
O=C1C(Cc2ccccc2)CS(=O)(=O)N1CS(=O)(=O)c1ccccc1 (stereo not shown) [Compound 10]	960 M⁻¹ s⁻¹
O=C1C(Cc2ccccc2)CS(=O)(=O)N1C(CF)Sc1ccccc1 (stereo not shown) [Compound 7]	40 M⁻¹ s⁻¹

Quick check: kinact/KI on cathepsin G (Cath G) (Homo sapiens), item O=C1C(Cc2ccccc2)CS(=O)(=O)N1C(CF)S(=O)(=O)c1ccccc1 (stereo not shown) [Compound 8] ?
420 M⁻¹ s⁻¹

----------
Listing of recorded kinact/KI by entry.
# measuredOn: human leukocyte elastase (HLE) (Homo sapiens)
# Construct: purchased Elastin Products Co., Owensville, Mo
# Sequence (P08246 30-247 limits assumed): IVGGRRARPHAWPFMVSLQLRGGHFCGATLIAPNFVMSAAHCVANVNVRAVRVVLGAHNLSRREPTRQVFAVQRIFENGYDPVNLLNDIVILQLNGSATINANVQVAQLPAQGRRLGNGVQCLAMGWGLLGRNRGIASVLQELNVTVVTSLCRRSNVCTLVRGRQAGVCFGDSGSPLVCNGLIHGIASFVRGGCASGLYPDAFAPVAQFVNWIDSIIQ
# assayProcedure: Inactivation of human leukocyte elastase (kobs/[I])
# Type: biochemical
# testParameters: Table 2
Number in M⁻¹ s⁻¹, nothing else.

So what does the record say about kinact/KI for CN1[C@@H](Cc2ccccc2)C(=O)N(CF)S1(=O)=O ?
1320

Please report the recorded kinact/KI for O=C(CN1[C@@H](Cc2ccccc2)C(=O)N(CF)S1(=O)=O)OCc1ccccc1 .
810

Any idea what kinact/KI was measured for CC(C)(C)OC(=O)CN1[C@@H](Cc2ccccc2)C(=O)N(CF)S1(=O)=O ?
490

What value of kinact/KI has been recorded for this entry: O=C1[C@H](Cc2ccccc2)N(Cc2ccccc2)S(=O)(=O)N1CF
930
